# credit: the RepoRT retention time repository

assay: HILIC, Waters Atlantis Premier BEH Z-HILIC, 100 × 2.1 mm, 1.7 µm, 40 °C, 0.15 mL/min, estimated dead time 1.5 min; A: water + 20 mM ammonium carbonate + 5 µM medronic acid; B: 10% water + 90% acetonitrile + 2 mM ammonium carbonate + 0.5 µM medronic acid; gradient (min/%B) 0/100 18/60 18.1/20 21.5/20 22/100 23.5/100 25.5/100; settings: stereoisomer not certain
value-kind: LC retention time (min)

Nc1ncnc2c1ncn2C1OC(CO)C(O)C1O (stereo not given) ... 3.63
OCC1OC(O)C(O)C(O)C1O (stereo not given) [Hexose] ... 6.98
C=C(OP(=O)(O)O)C(=O)O ... 13.1
Nc1ncnc2c1ncn2C1OC(COP(=O)(O)OP(=O)(O)O)C(O)C1O (stereo not given) ... 11.6
O=P(O)(O)OCC1OC(O)C(O)C(O)C1O (stereo not given) [Glucose-6-phosphate] ... 12.3
Cc1cc2nc3c(=O)[nH]c(=O)nc-3n(CC(O)C(O)C(O)COP(=O)(O)OP(=O)(O)OCC3OC(n4cnc5c(N)ncnc54)C(O)C3O)c2cc1C (stereo not given) ... 7.67
Nc1ncnc2c1ncn2C1OC(COP(=O)(O)O)C(O)C1O (stereo not given) ... 9.42
O=C(O)C(CO)OP(=O)(O)O (stereo not given) ... 12.8
CCC(C)C(N)C(=O)O (stereo not given) ... 6.4
O=C(O)CCC(=O)O ... 8.9
CC(=O)SCCNC(=O)CCNC(=O)C(O)C(C)(C)COP(=O)(O)OP(=O)(O)OCC1OC(n2cnc3c(N)ncnc32)C(O)C1OP(=O)(O)O (stereo not given) ... 9.69
C[N+](C)(C)CC(O)CC(=O)[O-] (stereo not given) ... 10.1
O=C(O)CC(C(=O)O)C(O)C(=O)O (stereo not given) ... 14
O=C(CO)COP(=O)(O)O [Triose phosphate] ... 10.4
Nc1ncnc2c1ncn2C1OC(COP(=O)(O)OP(=O)(O)OP(=O)(O)O)C(O)C1O (stereo not given) ... 13.6
O=C(O)CC(O)(CC(=O)O)C(=O)O ... 14.3
NC(CCC(=O)O)C(=O)O (stereo not given) ... 9.81
CC(C)(COP(=O)(O)OP(=O)(O)OCC1OC(n2cnc3c(N)ncnc32)C(O)C1OP(=O)(O)O)C(O)C(=O)NCCC(=O)NCCS (stereo not given) ... 11.4
O=C(O)CCC(=O)C(=O)O ... 8.86
CC(O)C(=O)O (stereo not given) ... 3.35

---

LC retention time for assorted compounds
assay: HILIC, Waters Atlantis Premier BEH Z-HILIC, 100 × 2.1 mm, 1.7 µm, 40 °C, 0.15 mL/min, estimated dead time 1.5 min; A: water + 20 mM ammonium carbonate + 5 µM medronic acid; B: 10% water + 90% acetonitrile + 2 mM ammonium carbonate + 0.5 µM medronic acid; gradient (min/%B) 0/100 18/60 18.1/20 21.5/20 22/100 23.5/100 25.5/100; conditions: stereoisomer not certain
value-kind: LC retention time

CC(C)CC(N)C(=O)O (centres undefined) ... 6.46 min
O=C1CC(C(=O)O)NC(=O)N1 (centres undefined) [dihydroorotic acid] ... 4.08 min
O=C(O)CCCCC1SCC2NC(=O)NC21 (centres undefined) ... 4.67 min
CC(=O)NC1C(OP(=O)(O)OP(=O)(O)OCC2OC(n3ccc(=O)[nH]c3=O)C(O)C2O)OC(CO)C(O)C1O (centres undefined) ... 9.95 min
